// data source = patent CN115197317A

Each entry below carries its recorded IC50.
# experimentalSystem: 刺突S-鼠Fc融合蛋白 (S-mFc) (SARS-CoV-2; mouse, UniProt P0DTC2 14-1213)
reportedProperty: IC50 (µg/mL)

鼠源抗体ST-35-4 (antibody, V domains shown) VH: QVQLQQPGAELVRPGASMKLSCKTSGYTFTTYTIHWIKQTPGQGLEWIGAVNPGNGDTSYSQKFKGRAILTADKSSNTASMQFSSLTSEDSAVYYCARDGYPYFYALDSWGQGTSVTVSS VL: DIQMTQSPSSLSASLGERVSLTCRAGQEISSYLTWLQQKPDGTIKRLIYAASTLDSGVPKRFSGSRSGSDYSLTINSLESEDFADYYCLQYASYPWTFGGGTKVEIK | 0.0118
人源化抗体hST-35-4 (antibody, V domains shown) VH: EVQLVQSGAEVKKPGSSVKVSCKTSGYTFTTYTIHWIRQAPGQGLEWIGAVNPGNADTSYSQKFKGRATLTADKSSNTAYMELSSLRSEDTAVYYCARDAYPYFYALDSWGQGTTVTVSS VL: DIQMTQSPSSLSASVGDRVTITCRAGQEISSYLTWLQQKPEGTIKRLIYAASTLDSGVPKRFSGSRSGSDYTLTISSLQPEDFATYYCLQYASYPWTFGGGTKVEIKR | 0.0163
鼠源抗体ST-10-4 (antibody, V domains shown) VH: QVTLKESGPGILQPSQTLTLTCSFSGFSLDSSNMGVSWIRQTSGKGLEWLAHIYWGDDNRYNPSLKSRLTVSKDTSSNQVFLKLTNVDTADTATYYCARKWNWDWFPYWGQGTLVTVSA VL: DIVLTQSPTSLPVSLGQRATISCRASKSVSASGYSFMHWYQQKPGQPPKLLISLASNLESGVPARFSGSGSGTDFTLNIHPVEEEDAATYYCQHSRELPLTFGAGTKLELK | 0.0165
人源化抗体hST-10-4 (antibody, V domains shown) VH: EVTLKESGPALVKPTQTLTLTCTFSGFSLDSSNMGVSWIRQPPGKGLEWLAHIYWGDDNRYNPSLKSRLTVSKDTSKNQVVLTMTNMEPVDTATYYCARKWNWDWFPYWGQGTTVTVSS VL: DIVLTQSPDSLAVSLGERATINCRASKSVSASGYSFMHWYQQKPGQPPKLLISLASNLESGVPARFSGSGSGTDFTLTISRLQAEDVAVYYCQHSRELPLTFGAGTKLEIKR | 0.0123
